Provide the reported IC50 of each item.
tested on: Human Met (residues R974-S1390 with A1209G and V1290L) (Homo sapiens)
test method notes: Human Met kinase assay (33P radiometric, KinaseProfiler)
experimental conditions: 10 μM ATP, read-out: c-Met IC50

Here are 5 molecules together with their reported answers.
chemical structure: COc1cc2nccc(Oc3ccc(NC(=O)C4(C(=O)Nc5ccc(F)cc5)CC4)cc3)c2cc1C1(O)CNC1
IC50: ≤ 10 nM
--
chemical structure: NC(=O)c1ccc2c(Oc3ccc(NC(=O)C4(C(=O)Nc5ccc(F)cc5)CC4)cc3)ccnc2c1
IC50: ≤ 10 nM
--
chemical structure: COc1cc2nccc(Oc3ccc(NC(=O)C4(C(=O)Nc5ccc(F)cc5)CC4)cc3)c2cc1C#N
IC50: 10 to 100 nM
--
chemical structure: COc1cc2nccc(Oc3ccc(NC(=O)C4(C(=O)Nc5ccc(F)cc5)CC4)cc3)c2cc1C(=O)NCCN(C)C
IC50: ≤ 10 nM
--
chemical structure: CNC(=O)c1ccc2c(Oc3ccc(NC(=O)C4(C(=O)Nc5ccc(F)cc5)CC4)cc3)ccnc2c1
IC50: ≤ 10 nM

Please give IC50, item by item, for the list that follows.
1. NC(=O)c1ccc2nccc(Oc3ccc(NC(=O)C4(C(=O)Nc5ccc(F)cc5)CC4)cc3)c2c1
2. COc1cc2nccc(Oc3ccc(NC(=O)C4(C(=O)Nc5ccc(F)cc5)CC4)cc3)c2cc1-c1cnoc1

Given back:
["10 to 100 nM", "≤ 10 nM"]
